Cited source: the supplement of paper PMC10883282

Test system: SK-ES-1
Assay: relative viability vs DMSO control (72 h) (fraction); higher = more viable cells
Details: 0.1235 µM
measured-property: relative viability
Write no unit; give the number alone.

compound | relative viability
COc1cc2c(Oc3ccc4[nH]c(C)cc4c3F)ccnc2cc1OCC1(N)CC1 [Anlotinib] | 1.09
COc1cc(Nc2c(C#N)cnc3cc(OCCCN4CCN(C)CC4)c(OC)cc23)c(Cl)cc1Cl [Bosutinib] | 0.935
CO[C@@H]1[C@H](N(C)C(=O)c2ccccc2)C[C@H]2O[C@]1(C)n1c3ccccc3c3c4c(c5c6ccccc6n2c5c31)C(=O)NC4 [Midostaurin] | 0.898
C#Cc1cccc(Nc2ncnc3cc(OCCOC)c(OCCOC)cc23)c1 [Erlotinib] | 1.05
C[C@@H](Oc1cc(-c2cnn(C3CCNCC3)c2)cnc1N)c1c(Cl)ccc(F)c1Cl [Crizotinib] | 0.979
COc1cc2ncnc(Nc3ccc(F)c(Cl)c3)c2cc1NC(=O)/C=C/CN1CCCCC1 [Dacomitinib] | 1.02
Cc1ccc(C(=O)OCc2ccc([C@@H](CN)C(=O)Nc3ccc4cnccc4c3)cc2)c(C)c1 [Netarsudil] | 1.03

Now for the compound whose relative viability we want.
Which measured relative viability value corresponds to C[C@@H]1COC(Nc2ccc3ncnc(Nc4ccc(OCc5nccs5)c(Cl)c4)c3c2)=N1 [Varlitinib] ?
0.967

====

System: MES-SA
Assay: relative viability vs DMSO control (72 h) (fraction); higher = more viable cells
Settings: 0.00457 µM
measured-property: relative viability
Form: value (number only, do not type unit).

These recorded examples may help you get a feel for the data.
compound | relative viability
CO[C@@H]1[C@H](N(C)C(=O)c2ccccc2)C[C@H]2O[C@]1(C)n1c3ccccc3c3c4c(c5c6ccccc6n2c5c31)C(=O)NC4 | 0.885
COc1cc(Nc2c(C#N)cnc3cc(OCCCN4CCN(C)CC4)c(OC)cc23)c(Cl)cc1Cl | 0.979

Recorded relative viability for `NC(=O)c1cccc2cn(-c3ccc([C@@H]4CCCNC4)cc3)nc12` , please?
0.918

Could you do the same for `NC(=O)c1cnc2[nH]ccc2c1N[C@@H]1[C@@H]2CC3C[C@H]1C[C@@](O)(C3)C2` , please?
0.918

Try the compound `Cc1ccc(C(=O)OCc2ccc([C@@H](CN)C(=O)Nc3ccc4cnccc4c3)cc2)c(C)c1`
0.905

Entry to check: `C#Cc1cccc(Nc2ncnc3cc(OCCOC)c(OCCOC)cc23)c1`
0.945

====

Tested on: KHOS-NP
Test: relative viability vs DMSO control (72 h) (fraction); higher = more viable cells
Details: 0.01372 µM
Overview of recorded relative viability for various molecules
Would you mind answering with just the numeric figure?

Solved entries (count: 8):
structure-smiles-string | relative viability
Cc1ccc(C(=O)OCc2ccc([C@@H](CN)C(=O)Nc3ccc4cnccc4c3)cc2)c(C)c1 | 1.03
Cc1cn(-c2cc(NC(=O)c3ccc(C)c(Nc4nccc(-c5cnccn5)n4)c3)cc(C(F)(F)F)c2)cn1 | 1.12
COc1cc(OC)cc(N(CCNC(C)C)c2ccc3ncc(-c4cnn(C)c4)nc3c2)c1 | 1.04
Cc1c(F)cc(C(=O)NC2CC2)cc1-c1ccc(C(=O)NCC(C)(C)C)cn1 | 1.11
CO[C@@H]1[C@H](N(C)C(=O)c2ccccc2)C[C@H]2O[C@]1(C)n1c3ccccc3c3c4c(c5c6ccccc6n2c5c31)C(=O)NC4 | 1.02
Cc1nc(Nc2ncc(C(=O)Nc3c(C)cccc3Cl)s2)cc(N2CCN(CCO)CC2)n1 | 0.923
Cc1cc(Nc2ncc(Cl)c(Nc3ccccc3S(=O)(=O)C(C)C)n2)c(OC(C)C)cc1C1CCNCC1 | 1.06
COc1cc2c(Oc3ccc4[nH]c(C)cc4c3F)ccnc2cc1OCC1(N)CC1 | 1.07

Param item = `COc1cc2nccc(Oc3ccc(NC(=O)NC4CC4)c(Cl)c3)c2cc1C(N)=O` ; retrieve measured relative viability.
1.08
